Answer each item with its documented IC50.
# measured_on: human TrkA (Homo sapiens (Human), UniProt P04629)
# Sequence (P04629 33-796): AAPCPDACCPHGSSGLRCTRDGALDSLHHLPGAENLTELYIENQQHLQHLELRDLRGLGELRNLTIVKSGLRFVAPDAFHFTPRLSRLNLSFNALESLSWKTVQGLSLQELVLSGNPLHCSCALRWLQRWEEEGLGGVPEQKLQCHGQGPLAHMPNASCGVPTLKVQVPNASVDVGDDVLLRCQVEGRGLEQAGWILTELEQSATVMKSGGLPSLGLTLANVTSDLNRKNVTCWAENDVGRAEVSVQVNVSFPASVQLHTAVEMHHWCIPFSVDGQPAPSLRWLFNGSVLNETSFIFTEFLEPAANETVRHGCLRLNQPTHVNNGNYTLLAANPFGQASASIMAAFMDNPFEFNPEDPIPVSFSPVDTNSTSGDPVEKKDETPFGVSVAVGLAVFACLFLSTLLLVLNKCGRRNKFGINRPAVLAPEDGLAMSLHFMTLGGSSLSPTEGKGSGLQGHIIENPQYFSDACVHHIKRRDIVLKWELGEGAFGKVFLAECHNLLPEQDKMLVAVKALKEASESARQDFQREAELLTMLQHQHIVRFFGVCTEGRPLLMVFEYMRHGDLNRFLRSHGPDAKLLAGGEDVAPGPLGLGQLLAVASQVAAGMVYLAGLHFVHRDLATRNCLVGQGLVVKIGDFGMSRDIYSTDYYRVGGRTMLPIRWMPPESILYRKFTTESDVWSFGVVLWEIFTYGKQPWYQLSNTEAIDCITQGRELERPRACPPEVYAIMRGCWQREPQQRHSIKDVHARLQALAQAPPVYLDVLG
# assay_details: Measurement of TrkA kinase-inhibiting activity using human TrkA-expressing cells
# Type: cell-based
# condition_details: CHO-K1 cells expressing human TrkA and NFAT-bla; NGF 50 ng/ml; TR-FRET reporter
# Protocol: TrkA kinase-inhibiting activity in cell systems was measured using CHO-K1 cells exressing human TrkA and NFAT-bla (CellSenser™ TrkA-NFAT-bla CHO-K1 cells, Invitrogen). […] A460x: the fluorescence intensity at 460 nm of the present compound, control or blank; A460F: the fluorescence intensity at 460 nm of the Cell-free; A530x: the fluorescence intensity at 530 nm of the present compound, control or blank; and A530x: the fluorescence intensity at 530 nm of the Cell-free. […]
// return the numeric value with its unit appended

Input: Please tell me: IC50 of Cn1nccc1-c1ccc(C(F)(F)F)cc1NC(=O)Nc1cnc(Oc2ccc(-c3cnn4ccc(N5CCC5)nc34)cc2)nc1 [Example 21-2] , system human TrkA (Homo sapiens (Human), UniProt P04629)?
Output: 0.001 µM

Input: Please give the result for CCNc1ccn2ncc(-c3ccc(Oc4ncc(NC(=O)Nc5cc(C(F)(F)F)ccc5-c5cccc(C)c5)cn4)cc3)c2n1 [Example 21-67] too.
Output: 0.004 µM

Input: Please give the result for Nc1ncc(F)cc1-c1ccc(Oc2ncc(NC(=O)Nc3cc(C(F)(F)F)ccc3-c3ccccc3)cn2)cc1 [Example 15-58] too.
Output: 0.002 µM

Input: Please give the result for CN(C)c1ccn2ncc(-c3ccc(Oc4ncc(NC(=O)Nc5cc(C(F)(F)F)ccc5-c5ccccc5)cn4)cc3)c2n1 [Example 21-70] too.
Output: 0.002 µM

Input: Please give the result for O=C(Nc1cnc(Oc2ccc(-c3cnn4ccccc34)cc2)nc1)Nc1cc(C(F)(F)F)ccc1-c1cccnc1 [Example 23-11] too.
Output: 0.001 µM

Input: Please give the result for Nc1ncc(Cl)cc1-c1ccc(Oc2ncc(NC(=O)Nc3ccc(C(F)(F)F)cc3-n3cccn3)cn2)cc1 [Example 15-4] too.
Output: 0.001 µM

Input: Please give the result for Nc1ncc(Cl)cc1-c1ccc(Oc2ncc(NC(=O)Nc3cc(C(F)(F)F)ccc3-c3ccccc3)cn2)cc1 [Example 15-55] too.
Output: 0.004 µM
